Assay: Selectivity ratio of IC50 for MDCK cells to EC90 for Influenza A virus Hong Kong/213/2003/H5N1 by virus yield reduction assay
Assay type: ADME, cell-based
Conditions: dog, MDCK cells
Catalogue of selectivity ratio values

Study these solved cases before continuing.
>>> assay_result("Nc1ccn([C@H]2C[C@@H](CO)[C@H](O)[C@@H]2O)c(=O)n1")
"< 10"
>>> assay_result("Nc1ccn([C@@H]2C[C@H](CO)[C@@H](O)[C@H]2O)c(=O)n1")
"> 197"

# ---- query molecule ----
For NC(=O)c1ncn([C@@H]2O[C@H](CO)[C@@H](O)[C@H]2O)n1 [RIBAVIRIN] the molecule record lists selectivity ratio as > 78

---

Assay: Selectivity ratio of IC50 for MDCK cells to EC90 for Influenza A virus Vietnam/1203/ 2004H/H5N1 by virus yield reduction assay
Assay type: ADME, cell-based
Conditions: dog, MDCK cells
Overview of recorded selectivity ratio for various molecules

>>> assay_result("NC(=O)c1ncn([C@@H]2O[C@H](CO)[C@@H](O)[C@H]2O)n1 [RIBAVIRIN]")
"> 113"

Lab note: next molecule to report on.
According to the records, this molecule Nc1ccn([C@H]2C[C@@H](CO)[C@H](O)[C@@H]2O)c(=O)n1 displays selectivity ratio of < 10

---

System: Influenza A virus
Assay: Antiviral activity against Influenza A virus California/07/2009 /H1N1 infected MDCK cells after 42 to 46 hrs by neutral red dye uptake assay
Assay type: functional, organism-based, A/California/07/2009(H1N1)
Conditions: mdck
Reported property: pEC50
# pEC50 is unitless: minus log10 of the molar concentration; print number only

Bench note, Influenza A virus: entry Nc1ccn([C@@H]2C[C@H](CO)[C@@H](O)[C@H]2O)c(=O)n1 (racemic) , its pEC50 = 5.72

---

Assay: Selectivity ratio of IC50 for MDCK cells to EC90 for Influenza B virus Malaysia/2506/2004 by virus yield reduction assay
Assay type: ADME, cell-based
Details: dog, MDCK cells
selectivity ratio values by entry

>>> assay_result("NC(=O)c1ncn([C@@H]2O[C@H](CO)[C@@H](O)[C@H]2O)n1 [RIBAVIRIN]")
"> 59"

# molecule Nc1ccn([C@H]2C[C@@H](CO)[C@H](O)[C@@H]2O)c(=O)n1 ; its selectivity ratio = < 10

---

# selectivity ratio values compiled below
Test: Selectivity ratio of IC50 for MDCK cells to EC50 for inhibition of virus-induced cytopathic effect of Influenza A virus Wisconsin/67/2005/H3N2
Assay type: cell-based
Details: dog, MDCK cells; read-out: Ratio IC50/EC50

Illustrative cases are given below, each with its answer.
>>> assay_result("NC(=O)c1ncn([C@@H]2O[C@H](CO)[C@@H](O)[C@H]2O)n1")
"> 80"
>>> assay_result("Nc1ccn([C@@H]2C[C@H](CO)[C@@H](O)[C@H]2O)c(=O)n1")
"> 259"

Record Nc1ccn([C@H]2C[C@@H](CO)[C@H](O)[C@@H]2O)c(=O)n1 , field selectivity ratio: < 10

---

Assay: Selectivity ratio of IC50 for MDCK cells to EC50 for Influenza A virus Hong Kong/213/2003/H5N1 by neutral red dye uptake assay
Format: ADME, cell-based
Settings: dog, MDCK cells; read-out: Ratio IC50/EC50
Reported property: selectivity ratio

>>> assay_result("Nc1ccn([C@H]2C[C@@H](CO)[C@H](O)[C@@H]2O)c(=O)n1")
"< 10"

Field: next molecule
// field: selectivity ratio; key: NC(=O)c1ncn([C@@H]2O[C@H](CO)[C@@H](O)[C@H]2O)n1 ; value = > 139
